# Tested on: NCI-H23
# PROTOCOL: NCI tumour cell line growth inhibition, 48 h
Activity calls are given as the source filed them. Cut-off read from the data, not from the text of the source: active = GI50 up to about 1.1 µM and inactive = higher.
READOUT_TYPE: GI50

Examples with answers:
| COMPOUND | OBSERVED_MEASUREMENT |
| --- | --- |
| Cc1cn(C2CC(N=[N+]=[N-])C(CO)O2)c(=O)n(CCCCO)c1=O (centres undefined) | > 100 µM (inactive) |
| CCn1c2ccccc2c(=O)c2c(OC)ccc(OC)c21 | > 83.8 µM (inactive) |
| CCCNC(=S)N/N=C(\C)c1ccc(S(=O)(=O)N(C)c2ccccc2)cc1 | > 60.8 µM (inactive) |

Now look at this one.
Reported GI50 of CC(N)Cc1ccc(F)cc1 (centres undefined) : > 100 µM (inactive)
